Assay details: Liver microsomes metabolic stability assay, rat
Format: in vitro ADME
Particulars: male, rat liver microsomes 0.5 mg/mL, 37° C.
Recorded microsomal CLint at 2 μM split into classes range A (below 30 µL/min/mg), range B (30 µL/min/mg to below 60 µL/min/mg), range C (60 µL/min/mg or more)

These recorded examples may help you get a feel for the data.
• COCCOc1cc2[nH]c(-c3cnn4ccc(N5CCC[C@@H]5c5cc(F)ccc5F)nc34)nc2cc1C#N = range C
• CC(C)(O)Cc1nnc(-c2cnn3ccc(N4CCC[C@@H]4c4cc(F)ccc4F)nc23)[nH]1 = range C
• C[C@@H](CO)c1nnc(-c2cnn3ccc(N4CCC[C@@H]4c4cc(F)ccc4F)nc23)[nH]1 = range C
• C[C@H](N)c1nnc(-c2cnn3ccc(N4CCC[C@@H]4c4cc(F)ccc4F)nc23)[nH]1 = range A
• C[C@@](O)(c1nnc(-c2cnn3ccc(N4CCC[C@@H]4c4cc(F)ccc4F)nc23)[nH]1)C(F)(F)F = range B
• COc1cc2nc(-c3cnn4ccc(N5CCC[C@@H]5c5cc(F)ccc5F)nc34)[nH]c2cc1C(=O)O = range A
• COCCOc1cc2nc(-c3cnn4ccc(N5CCC[C@@H]5c5cc(F)ccc5F)nc34)[nH]c2cc1OCCOC = range C
• Fc1ccc(F)c([C@H]2CCCN2c2ccn3ncc(-c4nnc(-c5ccc6c(c5)CCNC6)[nH]4)c3n2)c1 = range A

Assign a bin to Cc1nnc(-c2cnn3ccc(N4CCCC4c4cc(F)ccc4F)nc23)[nH]1 (stereo not shown) [Comparative compound A, reference compound]
range C

Could you tell me which band CC(C)(O)c1nnc(-c2cnn3ccc(N4CCC[C@@H]4c4cc(F)ccc4F)nc23)[nH]1 belongs to?
range A

---

Tested system: TrkA kinase (Homo sapiens)
Assay details: TrkA kinase assay (mobility shift assay)
Format: biochemical
Particulars: numeric values; read-out: Trk A Kinase IC50
pIC50: −log10 of the molar value.
Classify by measured pIC50: Criterion met if it is equal to or exceeds 9, Criterion not met if it is smaller.

* Fc1ccc(F)c([C@H]2CCCN2c2ccn3ncc(-c4nc5c(Cl)ccc(Cl)c5[nH]4)c3n2)c1 | Criterion not met
* OC1(c2nnc(-c3cnn4ccc(N5CCC[C@@H]5c5cc(F)ccc5F)nc34)[nH]2)CCC1 | Criterion not met

For this compound, is measured pIC50 9 or higher? NC1(c2nnc(-c3cnn4ccc(N5CCC[C@@H]5c5cc(F)ccc5F)nc34)[nH]2)CCC1
Criterion not met

Given CC(O)c1cc2nc(-c3cnn4ccc(N5CCC[C@@H]5c5cc(F)ccc5F)nc34)[nH]c2cn1 (stereo partly shown) , state whether its pIC50 is at least 9.
Criterion met

---

Tested system: CYP3A4 (Homo sapiens)
Construct: from tissue; host or cells: human liver microsomes
Sequence (P08684 whole entry): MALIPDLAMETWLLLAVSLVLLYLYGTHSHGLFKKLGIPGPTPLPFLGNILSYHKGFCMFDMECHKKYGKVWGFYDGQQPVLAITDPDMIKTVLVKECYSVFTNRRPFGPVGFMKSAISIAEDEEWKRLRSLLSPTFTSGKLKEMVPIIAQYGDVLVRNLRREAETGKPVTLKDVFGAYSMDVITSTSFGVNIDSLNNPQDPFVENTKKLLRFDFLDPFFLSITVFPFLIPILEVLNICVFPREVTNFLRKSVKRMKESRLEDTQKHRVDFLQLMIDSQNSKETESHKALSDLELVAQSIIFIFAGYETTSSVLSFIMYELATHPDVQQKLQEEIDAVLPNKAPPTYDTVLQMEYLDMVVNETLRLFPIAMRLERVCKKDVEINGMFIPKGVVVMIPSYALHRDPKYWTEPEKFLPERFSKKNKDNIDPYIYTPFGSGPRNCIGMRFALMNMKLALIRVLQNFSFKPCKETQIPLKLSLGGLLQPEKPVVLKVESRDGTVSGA
Assay details: Cytochrome P450 inhibition, CYP3A4
Format: in vitro ADME
Particulars: probe Midazolam (5 μM); 10 μM compound, human liver microsomes, substrate Midazolam; read-out: Inhibition percentage CYP3A4 (Midazolam)
Outcome measure: inhibition at 5 min, 10 µM (%)
Numbers only, in %.

Below, 3 molecules whose answers are already recorded.
- C[C@H](O)c1nnc(-c2cnn3ccc(N4CCC[C@@H]4c4cc(F)ccc4F)nc23)[nH]1 [Compound 4]: 20
- Cc1nnc(-c2cnn3ccc(N4CCCC4c4cc(F)ccc4F)nc23)[nH]1 (stereo not shown) [Comparative compound A, reference compound]: 70.1
- CC(C)(O)c1nnc(-c2cnn3ccc(N4CCC[C@@H]4c4cc(F)ccc4F)nc23)[nH]1 [Compound 7]: 6.97

// returns inhibition at 5 min, 10 µM for OC(c1nnc(-c2cnn3ccc(N4CCC[C@@H]4c4cc(F)ccc4F)nc23)[nH]1)C(F)(F)F (stereo partly shown) [Compound 47] with CYP3A4 (Homo sapiens); value = 22.4

---

Provide the recorded inhibition at 10 min, 10 µM for the entries that follow.
Tested system: CYP2C8 (Homo sapiens)
Construct: from tissue; host or cells: human liver microsomes
Sequence (P10632 whole entry): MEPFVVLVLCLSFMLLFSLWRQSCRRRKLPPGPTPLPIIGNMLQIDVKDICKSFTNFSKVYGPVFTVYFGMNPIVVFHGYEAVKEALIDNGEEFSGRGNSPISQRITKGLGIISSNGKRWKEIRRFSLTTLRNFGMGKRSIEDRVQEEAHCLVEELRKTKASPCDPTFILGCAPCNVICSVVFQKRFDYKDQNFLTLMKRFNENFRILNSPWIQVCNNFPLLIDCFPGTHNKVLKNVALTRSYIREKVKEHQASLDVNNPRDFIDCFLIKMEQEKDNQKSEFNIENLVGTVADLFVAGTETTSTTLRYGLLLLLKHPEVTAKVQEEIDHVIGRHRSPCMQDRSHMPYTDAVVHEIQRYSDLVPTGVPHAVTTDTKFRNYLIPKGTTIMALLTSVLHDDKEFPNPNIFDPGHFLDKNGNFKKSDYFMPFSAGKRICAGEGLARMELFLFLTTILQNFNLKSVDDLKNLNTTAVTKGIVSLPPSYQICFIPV
Assay details: Cytochrome P450 inhibition, CYP2C8
Type: in vitro ADME
Particulars: probe Paclitaxel (5 μM); 10 μM compound, human liver microsomes, substrate Paclitaxel; read-out: Inhibition percentage CYP2C8 (Paclitaxel)
Numbers only, in %.

* CC(C)(O)c1nnc(-c2cnn3ccc(N4CCC[C@@H]4c4cc(F)ccc4F)nc23)[nH]1 | 1.37
* Cc1nnc(-c2cnn3ccc(N4CCCC4c4cc(F)ccc4F)nc23)[nH]1 (stereo not shown) [Comparative compound A, reference compound] | 19.3

# return inhibition at 10 min, 10 µM for each item in the list
1. C[C@H](O)c1nnc(-c2cnn3ccc(N4CCC[C@@H]4c4cc(F)ccc4F)nc23)[nH]1
2. OC(c1nnc(-c2cnn3ccc(N4CCC[C@@H]4c4cc(F)ccc4F)nc23)[nH]1)C(F)(F)F (stereo partly shown)

[18.2, 32.8]

---

Tested system: TrkA kinase (Homo sapiens, UniProt P04629)
Sequence (P04629 33-796): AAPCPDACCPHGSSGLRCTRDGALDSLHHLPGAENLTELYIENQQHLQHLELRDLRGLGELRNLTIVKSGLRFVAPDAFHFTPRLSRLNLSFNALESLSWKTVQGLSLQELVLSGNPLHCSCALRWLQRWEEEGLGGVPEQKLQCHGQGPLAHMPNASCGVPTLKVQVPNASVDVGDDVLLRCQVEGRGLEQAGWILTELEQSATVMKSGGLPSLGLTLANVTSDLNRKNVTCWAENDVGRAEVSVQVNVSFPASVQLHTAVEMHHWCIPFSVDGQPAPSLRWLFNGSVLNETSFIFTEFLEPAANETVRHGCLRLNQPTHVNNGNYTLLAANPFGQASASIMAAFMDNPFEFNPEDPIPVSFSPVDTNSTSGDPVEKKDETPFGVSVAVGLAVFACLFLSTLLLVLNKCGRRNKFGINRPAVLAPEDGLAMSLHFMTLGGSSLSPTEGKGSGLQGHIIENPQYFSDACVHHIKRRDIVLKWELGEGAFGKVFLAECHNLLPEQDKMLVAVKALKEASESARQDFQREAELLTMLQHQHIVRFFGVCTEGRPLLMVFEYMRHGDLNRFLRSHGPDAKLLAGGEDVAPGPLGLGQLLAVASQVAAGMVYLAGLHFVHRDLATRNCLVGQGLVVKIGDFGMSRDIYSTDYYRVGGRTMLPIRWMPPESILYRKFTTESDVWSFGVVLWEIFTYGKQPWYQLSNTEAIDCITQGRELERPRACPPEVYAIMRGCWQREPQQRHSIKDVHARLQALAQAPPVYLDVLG
Assay details: TrkA kinase assay (mobility shift assay)
Format: biochemical
Particulars: numeric values; read-out: Trk A Kinase IC50
pIC50: −log10 of the molar value.
Given measured pIC50, output Met if it is greater than or equal to 9 and Not met if not.

The examples below pair each entry with its known result.
* CC(C)(O)Cc1nnc(-c2cnn3ccc(N4CCC[C@@H]4c4cc(F)ccc4F)nc23)[nH]1 | Not met
* Cc1cncc2nc(-c3cnn4ccc(N5CCC[C@@H]5c5cc(F)ccc5F)nc34)[nH]c12 | Met

For the next question, use this compound.
Answer whether pIC50 of CC(C)(C)OC(=O)N1CCC1c1nnc(-c2cnn3ccc(N4CCC[C@@H]4c4cc(F)ccc4F)nc23)[nH]1 (stereo partly shown) is greater than or equal to 9.
Not met

---

For each entry below, report its microsomal CLint at 2 μM value.
Assay details: Liver microsomes metabolic stability assay, mouse
Assay type: in vitro ADME
Particulars: male, mouse liver microsomes 0.5 mg/mL, 37° C.
Numbers only, in µL/min/mg.

// solved cases for microsomal CLint at 2 μM follow
• C[S+]([O-])c1cc2nc(-c3cnn4ccc(N5CCC[C@@H]5c5cc(F)ccc5F)nc34)[nH]c2cc1C#N (stereo partly shown) = 71.2
• CS(=O)(=O)c1cc2nc(-c3cnn4ccc(N5CCC[C@@H]5c5cc(F)ccc5F)nc34)[nH]c2cc1C#N = 32.4
• CC(C)(O)c1nnc(-c2cnn3ccc(N4CCC[C@@H]4c4cc(F)ccc4F)nc23)[nH]1 = 19.4
• Fc1ccc(F)c([C@H]2CCCN2c2ccn3ncc(-c4nc5cc(OC(F)(F)F)ccc5[nH]4)c3n2)c1 = 10.8
• C[C@H](N)c1nnc(-c2cnn3ccc(N4CCC[C@@H]4c4cc(F)ccc4F)nc23)[nH]1 = 61.9
• CSc1cc2nc(-c3cnn4ccc(N5CCC[C@@H]5c5cc(F)ccc5F)nc34)[nH]c2cc1C#N = 33.4

Attention now turns to another entry.
Measured microsomal CLint at 2 μM, COc1cc2nc(-c3cnn4ccc(N5CCC[C@@H]5c5cc(F)ccc5F)nc34)[nH]c2cc1C(=O)O : 0.8

---

Can you tell me microsomal CLint at 2 μM for the items I'm about to list?
Assay details: Liver microsomes metabolic stability assay, mouse
Format: in vitro ADME
Particulars: male, mouse liver microsomes 0.5 mg/mL, 37° C.
One number for each entry, in µL/min/mg.

Previously resolved entries follow.
* Fc1ccc(F)c([C@H]2CCCN2c2ccn3ncc(-c4nnc(-c5ccc(N6CCNCC6)cc5)[nH]4)c3n2)c1 | 12.4
* Fc1ccc(F)c([C@H]2CCCN2c2ccn3ncc(-c4nnc(-c5ccc6c(c5)CCNC6)[nH]4)c3n2)c1 | 4.6
* C[C@@](O)(c1nnc(-c2cnn3ccc(N4CCC[C@@H]4c4cc(F)ccc4F)nc23)[nH]1)C(F)(F)F | 25.9
* CNC(=O)c1cc2nc(-c3cnn4ccc(N5CCC[C@@H]5c5cc(F)ccc5F)nc34)[nH]c2cc1OC | 105
* CC(C)(O)Cc1nnc(-c2cnn3ccc(N4CCC[C@@H]4c4cc(F)ccc4F)nc23)[nH]1 | 35.6
* COCCOc1cc2[nH]c(-c3cnn4ccc(N5CCC[C@@H]5c5cc(F)ccc5F)nc34)nc2cc1C#N | 102

// next item, microsomal CLint at 2 μM requested
Recorded microsomal CLint at 2 μM (compound COCCOc1cc2nc(-c3cnn4ccc(N5CCC[C@@H]5c5cc(F)ccc5F)nc34)[nH]c2cc1OCCOC ): 103

---

Assay details: Plasma protein binding (equilibrium dialysis), rat
Assay type: in vitro ADME
Particulars: pH 7.4, 6 hours dialysis
I'd appreciate it if you could supply recovery at 6 h, 1 μM values for the items below.
One number for each entry, in %.

- OC1CC(c2nnc(-c3cnn4ccc(N5CCC[C@@H]5c5cc(F)ccc5F)nc34)[nH]2)C1 (stereo partly shown): 98.9

Fill in recovery at 6 h, 1 μM for each of the 3 compounds listed.
1. Cc1nnc(-c2cnn3ccc(N4CCCC4c4cc(F)ccc4F)nc23)[nH]1 (stereo not shown) [Comparative compound A, reference compound]
2. NC1(c2nnc(-c3cnn4ccc(N5CCC[C@@H]5c5cc(F)ccc5F)nc34)[nH]2)CCC1
3. CC(C)(O)c1nnc(-c2cnn3ccc(N4CCC[C@@H]4c4cc(F)ccc4F)nc23)[nH]1

93.8
82.5
90.8
